All figures here come from patent US7943606B2.

- TEST_NAME: Viability of HTB-157 fetal (normal) fibroblasts
- Format: cell-based, human
- COND: human, HTB-157 fetal lung (normal) fibroblasts, 50-100 μM, 48 hours, MTT; read-out: decrease in viability of HTB-157 fibroblasts
ENDPOINT_NAME: cytotoxicity at 48 h

Lookup: Would you mind telling me what cytotoxicity at 48 h value was observed for CC[N+](C)(CC)CCOCc1ccc2sc3ccccc3c(=O)c2c1.[I-] [CCDTHT] ?
Found: 20 to 22%

###

Each entry below carries its recorded inhibition at 100 µM.
- Test system: MEL-24 cells
- TEST_NAME: Viability of MEL-24 melanoma cells (MTT assay)
- Assay type: cell-based
- COND: Homo sapiens, 72 hours, read-out: Decrease in cell number (maximal decrease = 100%), MEL-24
Only the number, expressed in %, is required.

Worked cases, answers included:
INSERT INTO measurements (compound, endpoint_name, output_unit, quantitative_result) VALUES
  ('CC[N+](CC)(CCO)Cc1ccc2sc3ccccc3c(=O)c2c1 [CCcompound14]', 'inhibition at 100 µM', '%', 21),
  ('CC[N+](CC)(CC)CCCOCc1ccc2sc3ccccc3c(=O)c2c1 [CCcompound9]', 'inhibition at 100 µM', '%', 4);

Lookup: Given the entry CC[N+](C)(CC)CCCOCc1ccc2sc3ccccc3c(=O)c2c1 [CCcompound10] , report its measured inhibition at 100 µM.
Found: 15

Lookup: Lookup C[N+](C)(CCCO)Cc1ccc2sc3ccccc3c(=O)c2c1 [CCcompound15]
Found: 0

Lookup: Then CC[N+](CC)(CCCO)Cc1ccc2sc3ccccc3c(=O)c2c1 [CCcompound16] ?
Found: 0

###

The following molecules are shown together with reported inhibition at 100 µM values.
- System: MEL-24 cells
- TEST_NAME: Viability of MEL-24 melanoma cells (MTT assay)
- Format: cell-based
- COND: Homo sapiens, 72 hours, read-out: Decrease in cell number (maximal decrease = 100%), MEL-24
Structures can show the parent of a compound that is named as a salt.
State the value, then name its unit.

INSERT INTO measurements (molecule, result) VALUES
  ('C[N+](C)(CCO)Cc1ccc2sc3ccccc3c(=O)c2c1 [CCcompound13]', '12%'),
  ('CC[N+](C)(C)CCCOCc1ccc2sc3ccccc3c(=O)c2c1 [CCcompound11]', '20%'),
  ('CC[NH+](CC)CCCOCc1ccc2sc3ccccc3c(=O)c2c1 [CCcompound12, hydrochloride]', '73%');

Could you now consider this next molecule?
Lookup: Consider the molecule shown here: CC[N+](C)(CC)CCOCc1ccc2sc3ccccc3c(=O)c2c1.[I-] [CCDTHT] What is its recorded inhibition at 100 µM?
Found: 15%

###

Quick reference: IC50 of the listed items.
- Tested on: MRC-5 cells
- TEST_NAME: Viability of MRC-5 normal lung fibroblasts (MTT assay)
- Assay type: cell-based
- COND: Homo sapiens, MRC5; 10,000 cells per well (25-35% confluent), 72 hours, MTT; read-out: IC50 values, Antiproliferative, MRC-5
Remember to quote the unit after the number.

INSERT INTO measurements (smiles_entry, result) VALUES
  ('CC[N+](C)(CC)CCOCc1ccc2sc3ccccc3c(=O)c2c1.[I-]', '90 µM'),
  ('Cc1ccc2c(c1)/C(=C\CC[N+](C)(C)C)c1ccccc1S2', '113 µM'),
  ('C=CC[N+](CC)(CC)CC/C=C1/c2ccccc2Sc2ccc(C)cc21.[Br-]', '86 µM'),
  ('CC[N+](C)(CC)CC/C=C1/c2ccccc2Sc2ccc(C)cc21', '139 µM');

Lookup: Dear colleague, I am looking for the recorded IC50 of the following molecule: C=CC[N+](C)(C)CC/C=C1/c2ccccc2Sc2ccc(C)cc21
Found: 113 µM

Lookup: Query CC[N+](C)(C)CC/C=C1/c2ccccc2Sc2ccc(C)cc21 next
Found: 140 µM

Lookup: # iterate: CC[N+](CC)(CC)CC/C=C1/c2ccccc2Sc2ccc(C)cc21
Found: 118 µM

###

- TEST_NAME: Viability of MRC-5 normal lung fibroblasts (MTT assay)
- Assay type: cell-based
- COND: human, MRC-5 normal lung fibroblasts; 30,000 cells per well (80-90% confluent), 72 hours, MTT; read-out: IC50 values, Cytotoxic, MRC-5
Field: label. Allowed values: condition met (IC50 at 72 h < 200 µM) or condition not met (IC50 at 72 h >= 200 µM).

INSERT INTO measurements (smiles_entry, class_name) VALUES
  ('CC[N+](C)(CC)CC/C=C1/c2ccccc2Sc2ccc(C)cc21', 'condition met'),
  ('Cc1ccc2c(c1)/C(=C\CC[N+](C)(C)C)c1ccccc1S2', 'condition met');

Lookup: Please let me know if CC[N+](CC)(CC)CC/C=C1/c2ccccc2Sc2ccc(C)cc21 shows IC50 at 72 h below 200 µM.
Found: condition met

Lookup: And the next one, CC[N+](C)(C)CC/C=C1/c2ccccc2Sc2ccc(C)cc21 ?
Found: condition not met

Lookup: Next record, please: CC[N+](C)(CC)CCOCc1ccc2sc3ccccc3c(=O)c2c1.[I-]
Found: condition met

###

- TEST_NAME: Viability of HTB-157 fetal (normal) fibroblasts
- Format: cell-based, human
- COND: human, HTB-157 fetal (normal) fibroblasts, 100 μM, 10 days, MTT; read-out: reduction in the number of viable cells, HTB-157
ENDPOINT_NAME: cytotoxicity at 10 days, 100 μM

Lookup: Which cytotoxicity at 10 days, 100 μM value is on record for CC[N+](C)(CC)CCOCc1ccc2sc3ccccc3c(=O)c2c1.[I-] ?
Found: ≤ 50%

###

- Test system: T47D cells
- TEST_NAME: Viability of T47D breast cancer cells
- Format: cell-based, human
- COND: Homo sapiens, T47D; 30,000 cells per well (80-90% confluent), 72 hours, MTT; read-out: IC50 values, Cytotoxic, T47D
ENDPOINT_NAME: IC50 (µM)
State just the number; it will be interpreted in µM.

INSERT INTO assay_data (smiles_entry, endpoint_name, output_unit, quantitative_result) VALUES
  ('C=CC[N+](C)(C)CC/C=C1/c2ccccc2Sc2ccc(C)cc21', 'IC50', 'µM', 59),
  ('CC[N+](CC)(CC)CC/C=C1/c2ccccc2Sc2ccc(C)cc21', 'IC50', 'µM', 39),
  ('CC[N+](C)(CC)CC/C=C1/c2ccccc2Sc2ccc(C)cc21', 'IC50', 'µM', 38),
  ('Cc1ccc2c(c1)/C(=C\CC[N+](C)(C)C)c1ccccc1S2', 'IC50', 'µM', 59);

Lookup: Which value of IC50 has been reported for CC[N+](C)(CC)CCOCc1ccc2sc3ccccc3c(=O)c2c1.[I-] in the records?
Found: 66

Lookup: Please answer likewise for CC[N+](C)(C)CC/C=C1/c2ccccc2Sc2ccc(C)cc21
Found: 65

Lookup: Now consider C=CC[N+](CC)(CC)CC/C=C1/c2ccccc2Sc2ccc(C)cc21.[Br-] .
Found: 8

###

The compounds listed here are annotated with their pIC50.
- Tested on: CaOV-3 cells
- TEST_NAME: Viability of CaOV-3 ovarian cancer cells (MTT assay)
- Format: cell-based, human
- COND: Homo sapiens, Caov-3; 30,000 cells per well (80-90% confluent), 72 hours, MTT; read-out: IC50 values, Cytotoxic, CaOV-3
Notebook: values listed as pIC50 are -log10 of the concentration (mol/L).

The cases that follow already have their pIC50 on record.
INSERT INTO results (smiles_entry, endpoint_name, quantitative_result) VALUES
  ('C=CC[N+](CC)(CC)CC/C=C1/c2ccccc2Sc2ccc(C)cc21.[Br-]', 'pIC50', 4.23),
  ('CC[N+](CC)(CC)CC/C=C1/c2ccccc2Sc2ccc(C)cc21', 'pIC50', 4.18),
  ('CC[N+](C)(CC)CCOCc1ccc2sc3ccccc3c(=O)c2c1.[I-]', 'pIC50', 4.41),
  ('CC[N+](C)(C)CC/C=C1/c2ccccc2Sc2ccc(C)cc21', 'pIC50', 4.44),
  ('C=CC[N+](C)(C)CC/C=C1/c2ccccc2Sc2ccc(C)cc21', 'pIC50', 4.54);

Lookup: Entry under review: CC[N+](C)(CC)CC/C=C1/c2ccccc2Sc2ccc(C)cc21 . Reported pIC50?
Found: 4.49

Lookup: Same thing, different compound: Cc1ccc2c(c1)/C(=C\CC[N+](C)(C)C)c1ccccc1S2
Found: 4.54
